SYSTEM TESTED: Human Recombinant Matriptase 2 (Homo sapiens)
Construct: purchased Enzo Life Sciences (an in-house preparation was also used) ALX-201-752-1
TEST: Matriptase 2 fluorescence based inhibition assay, Method B (50 mM TRIS pH 7.5, 150 mM NaCl, 0.01% gelatin)
Assay type: biochemical
RUN CONDITIONS: 1 uM compound; Assay Used = B; read-out: Mar-2 % inhibition at 1 uM
Consider the following molecules and their measured inhibition at 1 µM readings.
ENDPOINT LABEL: inhibition at 1 µM

[
  {
    "MOLECULE": "N=C(N)c1ccc2cc(C(=O)NCCO)n(Cc3cc(Oc4ncccn4)cc4ccccc34)c2c1 [Compound I-582]",
    "VALUE": "75 to 100%"
  },
  {
    "MOLECULE": "NCc1ccc2cc(C(=O)NC3CCCC(N)C3)n(Cc3cccc4ccccc34)c2c1 (centres unmarked) [Compound I-540]",
    "VALUE": "25 to 50%"
  },
  {
    "MOLECULE": "N=C(N)c1ccc2cc(C(=O)O)n(Cc3ccc4ccccc4c3)c2c1 [Compound I-459]",
    "VALUE": "25 to 50%"
  },
  {
    "MOLECULE": "COC(=O)NCCNC(=O)c1cc2ccc(C(=N)N)cc2n1Cc1cc(Oc2ncccn2)cc2ccccc12 [Compound I-564]",
    "VALUE": "75 to 100%"
  },
  {
    "MOLECULE": "N=C(N)c1ccc2cc(C(=O)N3CC[C@@H](O)C3)n(Cc3cccc4ccccc34)c2c1 [Compound I-441]",
    "VALUE": "25 to 50%"
  },
  {
    "MOLECULE": "CN[C@H]1CC[C@H](NC(=O)c2cc3ccc(C(=N)N)cc3n2Cc2cccc3ccccc23)CC1 [Compound I-472]",
    "VALUE": "75 to 100%"
  },
  {
    "MOLECULE": "N=C(N)c1ccc2cc(C(=O)OCc3ccccc3)n(Cc3cc(Oc4ncccn4)cc4ccccc34)c2c1 [Compound I-596]",
    "VALUE": "25 to 50%"
  },
  {
    "MOLECULE": "N=C(N)c1ccc2[nH]c(C(=O)O)c(Cc3cc(Oc4ccccc4)cc4ccccc34)c2c1 [Compound I-588]",
    "VALUE": "25 to 50%"
  }
]

----------
Reported inhibition at 1 µM values follow for various molecules
SYSTEM TESTED: Human Recombinant Matriptase 2 (Homo sapiens, UniProt Q8IU80)
Construct: purchased Enzo Life Sciences (an in-house preparation was also used) ALX-201-752-1
Sequence (Q8IU80 whole entry): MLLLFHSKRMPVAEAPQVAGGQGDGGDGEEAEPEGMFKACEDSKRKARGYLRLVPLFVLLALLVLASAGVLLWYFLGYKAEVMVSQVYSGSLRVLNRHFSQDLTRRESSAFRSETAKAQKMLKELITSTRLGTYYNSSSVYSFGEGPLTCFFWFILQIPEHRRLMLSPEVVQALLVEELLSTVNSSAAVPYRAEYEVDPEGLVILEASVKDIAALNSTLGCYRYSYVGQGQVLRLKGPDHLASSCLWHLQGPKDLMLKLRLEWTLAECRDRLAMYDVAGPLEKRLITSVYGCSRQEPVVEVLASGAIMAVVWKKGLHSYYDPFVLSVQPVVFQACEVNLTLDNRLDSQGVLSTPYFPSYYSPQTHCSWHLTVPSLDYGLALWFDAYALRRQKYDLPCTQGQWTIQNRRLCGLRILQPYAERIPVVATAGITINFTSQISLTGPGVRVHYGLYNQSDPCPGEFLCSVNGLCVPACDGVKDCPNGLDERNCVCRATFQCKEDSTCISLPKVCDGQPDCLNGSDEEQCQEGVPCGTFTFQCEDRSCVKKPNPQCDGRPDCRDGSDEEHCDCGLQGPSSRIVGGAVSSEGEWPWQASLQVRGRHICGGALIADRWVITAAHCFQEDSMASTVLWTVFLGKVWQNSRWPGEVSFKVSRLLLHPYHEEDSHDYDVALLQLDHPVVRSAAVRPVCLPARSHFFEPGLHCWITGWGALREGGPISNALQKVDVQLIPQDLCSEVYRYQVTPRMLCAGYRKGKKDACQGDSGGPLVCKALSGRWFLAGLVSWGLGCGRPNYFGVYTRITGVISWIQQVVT
TEST: Matriptase 2 fluorescence based inhibition assay, Method B (50 mM TRIS pH 7.5, 150 mM NaCl, 0.01% gelatin)
Assay type: biochemical
RUN CONDITIONS: 1 uM compound; Assay Used = B (Method B); read-out: Mar-2 % inhibition at 1 uM

[
  {
    "COMPOUND": "N=C(N)c1ccc2cc(C(=O)N[C@H]3CC[C@H](N)CC3)n(Cc3ccc(Oc4ccccc4)c4ccccc34)c2c1",
    "inhibition at 1 µM": "75 to 100%"
  },
  {
    "COMPOUND": "N=C(N)c1ccc2cc(C(=O)OCCNC(N)=O)n(Cc3cccc4ccccc34)c2c1",
    "inhibition at 1 µM": "75 to 100%"
  },
  {
    "COMPOUND": "CO/N=C(\\N)c1ccc2c(c1)c(Cc1cccc3ccccc13)c(C(=O)O)n2C",
    "inhibition at 1 µM": "0 to 25%"
  },
  {
    "COMPOUND": "N=C(N)c1ccc2cc(C(=O)N[C@H]3CCCc4ccccc43)n(Cc3cccc4ccccc34)c2c1",
    "inhibition at 1 µM": "0 to 25%"
  },
  {
    "COMPOUND": "CCOC(=O)c1cc2ccc(/C(N)=N\\O)cc2n1Cc1cc(Oc2ncccn2)cc2ccccc12",
    "inhibition at 1 µM": "0 to 25%"
  },
  {
    "COMPOUND": "CS(=O)(=O)N[C@H]1CC[C@@H](NC(=O)c2cc3ccc(C(=N)N)nc3n2Cc2cccc3ccccc23)CC1",
    "inhibition at 1 µM": "75 to 100%"
  },
  {
    "COMPOUND": "CCn1c(C(=O)N[C@H]2CC[C@H](N)CC2)c(Cc2cccc3ccccc23)c2cc(C(=N)NN)ccc21",
    "inhibition at 1 µM": "0 to 25%"
  }
]
